Tested on: NCI-H522
Test: NCI tumour cell line growth inhibition, 48 h
Active and inactive are the calls of the source. No stated cut-off is given here; in the data, active = GI50 up to about 1.1 µM and inactive = higher.
Use one of these outcomes when replying: y for active, n for inactive

>>> qualitative_label("CC1(C)CC(=O)C(C(=O)C(=O)NC2=C(Cl)C(=O)c3ccccc3C2=O)C(=O)C1")
"n"
>>> qualitative_label("O=C(Nc1ccccc1Br)c1cccc([N+](=O)[O-])c1O")
"n"
>>> qualitative_label("c1csc(C[N+]23CN4CN(CN(C4)C2)C3)c1")
"n"

// outcome(item) with item = "CCOP(=O)(/C=C\n1ccc(=O)[nH]c1=O)OCC"
n

Which outcome was entered for the molecule "O=C1C2=C(CCCC2)Nc2cccc3ncn1c23" in this test?
n

What call does the record list for "Cc1c2cccc-2ccc2c3ccccc3n(C(=O)c3ccc(Cl)cc3)c12" ?
n
